Measured fraction unbound at 10 µM by item
- Assay Method Text: Plasma protein binding in human at 10 uM
- Type: ADME, cell-free
- Setup Conditions: read-out: PPB (converted)
Form rule: numeric answer, no unit written next to it.

Which measured fraction unbound at 10 µM value corresponds to O=C(O[C@@H]1COc2nc([N+](=O)[O-])cn2C1)N1CCN(c2ccc(OC(F)(F)F)cc2)CC1 ?
0.09

New cases:
Which measured fraction unbound at 10 µM value corresponds to O=[N+]([O-])c1cn2c(n1)OC[C@@H](OCc1ccc(OC(F)(F)F)cc1)C2 ?
0.06

====

- Target System: Voltage-gated inwardly rectifying potassium channel KCNH2 (Homo sapiens)
- Sequence (Q12809 whole entry): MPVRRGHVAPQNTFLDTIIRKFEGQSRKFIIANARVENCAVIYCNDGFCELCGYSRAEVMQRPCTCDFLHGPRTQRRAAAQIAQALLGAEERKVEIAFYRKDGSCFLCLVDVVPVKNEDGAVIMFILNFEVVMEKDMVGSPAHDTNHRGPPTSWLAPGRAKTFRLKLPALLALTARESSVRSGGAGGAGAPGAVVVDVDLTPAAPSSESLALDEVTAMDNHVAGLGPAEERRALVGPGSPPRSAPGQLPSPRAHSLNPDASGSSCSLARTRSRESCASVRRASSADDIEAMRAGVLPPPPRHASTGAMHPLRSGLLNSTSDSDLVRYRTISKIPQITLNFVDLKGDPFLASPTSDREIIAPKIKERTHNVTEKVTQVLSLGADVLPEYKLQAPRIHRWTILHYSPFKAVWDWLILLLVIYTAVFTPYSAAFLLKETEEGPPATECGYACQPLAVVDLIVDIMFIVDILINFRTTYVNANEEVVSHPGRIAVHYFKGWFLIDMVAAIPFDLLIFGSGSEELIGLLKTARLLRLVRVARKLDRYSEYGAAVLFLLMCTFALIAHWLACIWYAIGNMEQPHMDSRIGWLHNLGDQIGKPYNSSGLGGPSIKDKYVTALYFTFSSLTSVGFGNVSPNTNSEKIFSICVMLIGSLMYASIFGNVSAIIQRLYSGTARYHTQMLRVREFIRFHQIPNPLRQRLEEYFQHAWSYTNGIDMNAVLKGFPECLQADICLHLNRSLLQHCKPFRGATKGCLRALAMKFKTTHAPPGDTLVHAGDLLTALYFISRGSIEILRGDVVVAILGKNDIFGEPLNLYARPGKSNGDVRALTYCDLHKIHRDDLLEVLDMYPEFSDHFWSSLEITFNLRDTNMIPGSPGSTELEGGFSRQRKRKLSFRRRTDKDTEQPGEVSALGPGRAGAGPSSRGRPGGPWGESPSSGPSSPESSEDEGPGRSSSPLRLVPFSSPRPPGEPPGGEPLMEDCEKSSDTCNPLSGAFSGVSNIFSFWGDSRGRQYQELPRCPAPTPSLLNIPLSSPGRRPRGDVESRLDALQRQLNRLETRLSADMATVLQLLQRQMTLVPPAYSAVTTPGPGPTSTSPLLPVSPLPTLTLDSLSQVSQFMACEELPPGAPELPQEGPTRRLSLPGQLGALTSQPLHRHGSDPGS
- Assay Method Text: Inhibition of human Erg expressed in HEK293 cells by FAST patch clamp analysis
Reported Metric: IC50

Which measured IC50 value corresponds to O=C(O[C@@H]1COc2nc([N+](=O)[O-])cn2C1)N1CCN(c2ccc(OC(F)(F)F)cc2)CC1 ?
> 30 µM

====

- Assay Method Text: Tmax in high fat diet fed Beagle dog at 20 mg/kg, po
- Format: ADME, organism-based, Canis lupus familiaris
- Set-up: dose 20 mg/kg, route oral
- Setup Conditions: in vivo
Reported Metric: Tmax (h)
Unit h implied. Number only.

Which measured Tmax value corresponds to O=C(O[C@@H]1COc2nc([N+](=O)[O-])cn2C1)N1CCN(c2ccc(OC(F)(F)F)cc2)CC1 ?
12

====

Measured AUC(0-inf) by item
- Assay Method Text: AUC (0 to infinity) in CD-1 mouse lung at 40 mg/kg, po
- Assay type: ADME, organism-based
- Parameters: dose 40 mg/kg, route oral, time infinity
Unit ng·h/mL implied. Number only.

Which measured AUC(0-inf) value corresponds to O=C(Nc1ccc(OC(F)(F)F)cc1)O[C@@H]1COc2nc([N+](=O)[O-])cn2C1 ?
43300

Please examine the following record next.
Which measured AUC(0-inf) value corresponds to O=C(O[C@@H]1COc2nc([N+](=O)[O-])cn2C1)N1CCN(c2ccc(OC(F)(F)F)cc2)CC1 ?
169000

====

- Assay Method Text: Metabolic stability of the compound in CD-1 mouse liver microsomes assessed as compound remaining after 1 hr
- Format: ADME, Microsome
- Setup Conditions: read-out: Stability
Please note: remaining at 1 h exactly at 90% is 0. Only values below 90% get 1.

Solved cases (5 shown):
remaining at 1 h under 90%? Item: O=C(Nc1cccc(-c2ccc(C(F)(F)F)nc2)c1)O[C@@H]1COc2nc([N+](=O)[O-])cn2C1
1

remaining at 1 h under 90%? Item: O=C(O[C@@H]1COc2nc([N+](=O)[O-])cn2C1)N1CCN(c2ccc(OC(F)(F)F)cc2)CC1
1

remaining at 1 h under 90%? Item: O=C(Nc1ccc(-c2ccc(OC(F)(F)F)cc2)cc1)O[C@@H]1COc2nc([N+](=O)[O-])cn2C1
0

remaining at 1 h under 90%? Item: O=C(CO[C@@H]1COc2nc([N+](=O)[O-])cn2C1)Nc1ccc(OC(F)(F)F)cc1
1

remaining at 1 h under 90%? Item: CN(C(=O)O[C@@H]1COc2nc([N+](=O)[O-])cn2C1)c1ccc(OC(F)(F)F)cc1
1

API: the following record is the query input.
remaining at 1 h under 90%? Item: O=C(Nc1cccc(-c2ccc(OC(F)(F)F)cc2)c1)O[C@@H]1COc2nc([N+](=O)[O-])cn2C1
0
